- Tested on: Caenorhabditis elegans strain PE255
- EXPERIMENTAL DETAILS: In vivo C. elegans ATP status assay
- CONDITION SET: 75 µM
Class membership depends on LUM: mean difference in luminescence (ATP content) relative to plate controls alone; the intervals are bin 0 = under 0.4, bin 1 = from 0.4 up to 1, bin 2 = 1 and over

Recorded results for 3 compounds are shown here.
[
  {
    "COMPOUND": "O=C1CCC(N2C(=O)c3ccccc3C2=O)C(=O)N1 (centres unmarked) [Thalidomide]",
    "ASSIGNED CATEGORY": "bin 1"
  },
  {
    "COMPOUND": "Cc1cc(O)c2c(c1)C(=O)c1cc(O)cc(O)c1C2=O",
    "ASSIGNED CATEGORY": "bin 1"
  },
  {
    "COMPOUND": "CCc1cc(Cc2cc(CC)cc(C(C)(C)C)c2O)c(O)c(C(C)(C)C)c1",
    "ASSIGNED CATEGORY": "bin 0"
  }
]

Enquiry: Please indicate the class for `Nc1ccc(N)c2c1C(=O)c1ccccc1C2=O` based on its LUM: mean difference in luminescence (ATP content) relative to plate controls.
Return: bin 2

Enquiry: Dear colleague, I would appreciate it if you could identify the bin for CCC(C)c1cc([N+](=O)[O-])cc([N+](=O)[O-])c1O (centres unmarked) and reply at your convenience.
Return: bin 2

====

- Test system: rat primary hepatocytes
- EXPERIMENTAL DETAILS: MMP assay in rat primary hepatocytes
- CONDITION SET: rat hepatocytes; mean ± SD of three experiments
MEASUREMENT NAME: MMP assays efficacy (%) Rat Hepatocytes
Lab book: enter the figure in %, no units written.

[
  {
    "STRUCTURE SMILES": "O=C1c2cccc(O)c2C(=O)c2c(O)cc(CO)cc21",
    "VALUE UNITS": "%",
    "MMP assays efficacy (%) Rat Hepatocytes": -48
  }
]

Turning to the following compound.
In plain terms, `CC(C)(C)c1ccc(O)c(C(C)(C)C)c1` has a documented MMP assays efficacy (%) Rat Hepatocytes of -131

====

- Tested on: HepG2 cells
- EXPERIMENTAL DETAILS: cells
- CONDITION SET: Homo sapiens, HepG2, read-out: MMP assays efficacy (%) HepG2
MEASUREMENT NAME: Emax

[
  {
    "COMPOUND": "O=C(CC(=O)c1ccccc1)c1ccccc1",
    "Emax": "121%"
  }
]

Reported Emax for `Oc1ccc(Cl)cc1Sc1cc(Cl)ccc1O` was 101%

Please fill in: Emax reported for `Nc1cccc(N)n1` = 84%

Kindly note the recorded Emax for Cc1ccccc1C(=O)Nc1ccc(C(=O)N2CCCC(O)c3cc(Cl)ccc32)c(C)c1 (centres unmarked) , which is 50%

====

Lab note: MMP assays efficacy (%) Rat Hepatocytes readings collected with rat primary hepatocytes for the following molecules.
Kindly provide the numeric value in % only, without the unit symbol.

[
  {
    "MOLECULE": "O=C(CC(=O)c1ccccc1)c1ccccc1",
    "VAL": -84
  },
  {
    "MOLECULE": "CS(=O)(=O)Nc1ccc([N+](=O)[O-])cc1Oc1ccccc1 [Nimesulide]",
    "VAL": -117
  }
]

Record `CCCN(CCC)c1c([N+](=O)[O-])cc(C(F)(F)F)cc1[N+](=O)[O-]` has rat primary hepatocytes MMP assays efficacy (%) Rat Hepatocytes equal to -53

The measured MMP assays efficacy (%) Rat Hepatocytes that `Cc1ccc2ccc3cccc4ccc1c2c34` showed for rat primary hepatocytes is -57

rat primary hepatocytes MMP assays efficacy (%) Rat Hepatocytes of O=C1C(I)=CC(=C(c2cc(I)c(O)c(I)c2)c2ccccc2C(=O)O)C=C1I [Iodophthalein sodium] is -107

Noted MMP assays efficacy (%) Rat Hepatocytes for `OC(c1ccc(Cl)cc1)(c1ccc(Cl)cc1)C(Cl)(Cl)Cl` , tested on rat primary hepatocytes: -122

# value of MMP assays efficacy (%) Rat Hepatocytes, rat primary hepatocytes, item O=C(Nc1ccccc1)c1ccccc1O [Salicylanilide] = -91
